test system: OVCAR-3 ovarian; assay: NCI tumour cell line growth inhibition, 48 h
Can you tell me TGI for the items I'm about to list?
Numbers only, in µM.

Cc1cc(C)nc(NS(=O)(=O)c2ccc(NC(=O)c3cccc4c(Nc5ccc(S(=O)(=O)N=C(N)N)cc5)c5ccccc5nc34)cc2)n1 :: 35.5

TGI measured on COc1cc(/C=C/c2cc(/C=C/c3ccc(O)c(OC)c3)n(C(N)=O)n2)ccc1O = 2.19

* * *

tested on: HOP-92 NSCLC; test: NCI tumour cell line growth inhibition, 48 h; in the data active = GI50 below about 0.43 µM; inactive = the rest
A correct response names exactly one class from YES for active, NO for inactive

See these solved cases before continuing.
CSc1ccc(C2=NN(c3ccccc3)C(c3ccc(-c4cc(Cl)c(Cl)cc4Cl)o3)C2)cc1 (stereo unspecified) :: NO
COc1cc(C=C2c3ccccc3C(=O)c3ccccc32)ccc1OCCCCOc1cc2c(cc1OC)C(=O)N1CCCC1C=N2 (stereo unspecified) :: YES
Cn1cc(-c2csc(-c3c[nH]c4ccc(F)cc34)n2)c2cccnc21 :: NO
O=[N+]([O-])c1cc([N+](=O)[O-])c(NN=C(c2ccc(O)cc2)c2ccc(O)cc2)cc1Cl :: NO
CN(C)CCCNc1nc2ccccc2c2c(=O)c3cc(F)ccc3sc12 :: NO

Asked: Dear colleague, could you share the recorded outcome for Oc1ccc(OCCOc2ccc(O)cc2)cc1 when you have a moment?
Given back: NO

* * *

test system: SF-268 CNS; test: NCI tumour cell line growth inhibition, 48 h
Can you tell me TGI for the items I'm about to list?

Dear colleague, could you please provide TGI for the compounds listed below?
1. COc1cc(C2CC(c3ccc(SC)cc3)=NN2C(C)=O)cc(OC)c1OC (stereo unspecified)
2. COC(=O)CCCC(=O)C1=Nc2ccccc2CN(c2ccc(Cl)cc2)N1
3. O=C(O)[C@@H](NS(=O)(=O)c1ccc(F)cc1)c1ccccc1
4. O=C1c2ccc3c4ccc5c6c(ccc(c7ccc(c2c37)C(=O)N1CCN1CCCCC1)c64)C(=O)N(CCN1CCCCC1)C5=O
5. CCN(Cc1cc(F)cc(F)c1)c1ccc(CO)c(Cl)c1
6. C=CCOC1=C(OC(C)=O)C(=O)OC1C1COC(C)(C)O1 (stereo unspecified)
7. O=[N+]([O-])c1cc([N+](=O)[O-])c(NN=C(c2ccc(O)cc2)c2ccc(O)cc2)cc1Cl
8. CN1C(=O)C(/C=N/NC(=O)c2cccnc2)C(N)N(C)C1=O (stereo unspecified)

Given back:
1: > 100 µM; 2: > 100 µM; 3: > 100 µM; 4: > 100 µM; 5: 31.3 µM; 6: > 100 µM; 7: 3.29 µM; 8: > 100 µM

Dear colleague, could you please provide TGI for the compounds listed below?
1. N#CC1=C(N)OC2=C(CCCc3ccc([N+](=O)[O-])cc32)C1c1ccccc1 (stereo unspecified)
2. COC(=O)/C(C#N)=C1\CCC(OC)N1 (stereo unspecified)
3. O=C(O)C1(Nc2ccc(Cl)cc2)CCCC1

Given back:
1: 21.9 µM; 2: > 100 µM; 3: > 100 µM

* * *

test system: LOX IMVI melanoma; experiment: NCI tumour cell line growth inhibition, 48 h
readout.kind: TGI

// solved cases for TGI follow
COc1ccc2nccc(/C=C/c3ccc(N(C)C)cc3)c2c1 :: > 10 µM
CC(C#N)NCc1ccc(C(C)NC(C)C#N)cc1 (stereo unspecified) :: > 100 µM
CC(C)(C)[Si](C)(C)OC1(CCc2ccccc2OS(=O)(=O)C(F)(F)F)CCCC=C1COCc1ccccc1 (stereo unspecified) :: > 100 µM
Oc1ccc(OCCOc2ccc(O)cc2)cc1 :: > 100 µM
C(=N\c1cc2cc(Sc3ccccc3)ccc2[nH]1)/c1ccccc1 :: > 12.5 µM

Dear colleague, could you please provide TGI for the compounds listed below?
1. Cn1c(=O)c2[nH]c(CCCCc3nc4ccccc4[nH]3)nc2n(C)c1=O
2. COc1ccc(C(c2ccc(OC)cc2)N2C(=O)CCC2C(=O)O)cc1 (stereo unspecified)
3. Clc1ccc(Cc2nc3cc(Cl)c(Cl)cc3n2CC2CCCN3CCCCC23)cc1Cl (stereo unspecified)
4. CN(C)CCCNc1nc2ccccc2c2c(=O)c3cc(F)ccc3sc12

Given back:
> 100 µM
> 100 µM
6 µM
3.05 µM

Dear colleague, could you please provide TGI for the compounds listed below?
1. CCOC(=O)[C@]12C3C=CC(C3)C1C(=O)C1OC12 (stereo partly specified)
2. COc1cc(/C=C/c2cc(/C=C/c3ccc(O)c(OC)c3)n(C(=O)Cc3ccccc3)n2)ccc1O

Given back:
> 100 µM
9.02 µM
